- assay target: FL huCD4 K33A (Homo sapiens, UniProt P01730, K33A)
- test name: CADA down-modulation of cellular huCD4
- condition: HEK293T, 48h
pIC50: −log10 of the molar value.
result type: pIC50

compound="C=C1CN(S(=O)(=O)c2ccc(C)cc2)CCCN(Cc2ccccc2)CCCN(S(=O)(=O)c2ccc(C)cc2)C1 [CADA, Cyclotriazadisulfonamide]" assay_result="< 4.30"
